system: HEK293; assay: Growth of HEK293; assay type: cell-based, human; conditions: Homo sapiens, HEK293, 72 h, read-out: K, Growth, CTG
Property: EC50 (nM)
Please give a number only; it is taken to be in nM.

For this molecule ( O=C(N[C@@H]1CCCc2c1[nH]c1ccc(Cl)cc21)c1ccccn1 ), measured EC50 is 12

----------
tested on: Caski; test: Growth of Caski; type: cell-based, human; conditions: Homo sapiens, Ca-Ski, 72 h, read-out: K, Growth, MTS
Property: EC50
Write the numeric value and append its unit.

For this compound ( O=C(N[C@@H]1CCCc2c1[nH]c1ccc(Cl)cc21)c1ccccn1 ), measured EC50 is 32 nM

----------
test system: HPV-31; assay: HPV DNA by qPCR in CIN612 cells; assay type: cell-based; conditions: read-out: K, HPV DNA, qPCR
Property: EC50 (nM)
Please give a number only; it is taken to be in nM.

For this compound ( O=C(N[C@@H]1CCCc2c1[nH]c1ccc(Cl)cc21)c1ccccn1 [GSK983] ), measured EC50 is 2.4

----------
experiment: Growth of WI38 fibroblasts, MTS; assay type: cell-based; details: human
Property: CC50 at 72 h

For this compound ( O=C(N[C@@H]1CCCc2c1[nH]c1ccc(Cl)cc21)c1ccccn1 ), measured CC50 at 72 h is 90 µM

----------
assay: Bone marrow toxicity assay, granulocyte/macrophage progenitors; assay type: cell-based; conditions: human, granulocyte/macrophage bone marrow progenitor cells
Property: CC50 (µM)
Please give a number only; it is taken to be in µM.

For this molecule ( O=C(N[C@@H]1CCCc2c1[nH]c1ccc(Cl)cc21)c1ccccn1 ), measured CC50 is 160

----------
tested on: WI38 VA13; experiment: Growth of WI38 VA13; assay type: cell-based, human; conditions: Homo sapiens, WI-38 VA13, 72 h, read-out: K, Growth, CTG
Property: pEC50
Value format note: pEC50 is -log10 of concentration (mol/L); just state the number.

For this molecule ( O=C(N[C@@H]1CCCc2c1[nH]c1ccc(Cl)cc21)c1ccccn1 [GSK983] ), measured pEC50 is 7.80

----------
test system: adenovirus type 5; assay: Adenovirus assay: adenovirus-5 replication in HFF cells, viral DNA by qPCR; assay type: cell-based; details: read-out: EC50, adenovirus replication; data not shown
pEC50: −log10 of the molar value.
Property: pEC50

For this compound ( O=C(N[C@H]1CCCc2c1[nH]c1ccc(Cl)cc21)c1ccccn1 ), measured pEC50 is < 5.00

----------
tested on: activated primary B cells; test: Growth of activated primary B cells, CTG; assay type: cell-based, human; settings: read-out: CC50, host primary cell growth, 72 h
Property: CC50

For this compound ( O=C(N[C@@H]1CCCc2c1[nH]c1ccc(Cl)cc21)c1ccccn1 ), measured CC50 is > 10 µM

----------
test: Growth of resting PBMC, MTS; type: cell-based; details: human, resting PBMCs
Property: CC50 at 72 h (µM)
Please give a number only; it is taken to be in µM.

For this compound ( O=C(N[C@@H]1CCCc2c1[nH]c1ccc(Cl)cc21)c1ccccn1 [GSK983] ), measured CC50 at 72 h is 520

----------
assay: Growth of uninfected HFF cells; type: cell-based, human; conditions: human, HFF cells (fibroblasts)
Property: CC50 at 72 h
Write the numeric value and append its unit.

For this molecule ( O=C(N[C@@H]1CCCc2c1[nH]c1ccc(Cl)cc21)c1ccccn1 [GSK983] ), measured CC50 at 72 h is 55 µM

----------
test: Growth of activated PBMC, MTS; format: cell-based; conditions: human, activated PBMCs
Property: CC50 at 72 h (µM)
Please give a number only; it is taken to be in µM.

For this compound ( O=C(N[C@@H]1CCCc2c1[nH]c1ccc(Cl)cc21)c1ccccn1 [GSK983] ), measured CC50 at 72 h is 224

----------
experiment: Growth of HUVEC endothelial cells, MTS; assay type: cell-based; conditions: human
Property: CC50 at 72 h

For this molecule ( O=C(N[C@@H]1CCCc2c1[nH]c1ccc(Cl)cc21)c1ccccn1 ), measured CC50 at 72 h is > 10 µM

----------
test system: BJAB; test: Growth of BJAB, MTS; assay type: cell-based, human; settings: Homo sapiens, 72 h, read-out: K, growth, MTS
Property: EC50 (nM)
Please give a number only; it is taken to be in nM.

Assay BJAB, sample O=C(N[C@@H]1CCCc2c1[nH]c1ccc(Cl)cc21)c1ccccn1 , EC50 read: 9

----------
tested on: a variety of unrelated viruses; assay: Replication of a variety of unrelated viruses in vitro; type: cell-based; conditions: read-out: EC50 values, replication of a variety of unrelated viruses in vitro
pEC50: −log10 of the molar value.
Property: pEC50

Assay a variety of unrelated viruses, sample O=C(N[C@@H]1CCCc2c1[nH]c1ccc(Cl)cc21)c1ccccn1 , pEC50 read: 7.70 to 8.30

----------
test system: MT4 cells; test: Growth of MT4 cell line; assay type: cell-based, human; conditions: read-out: K, cell line growth; MT4 (HTLV1), CTG, 72 h; K ∼ EC50
Property: pEC50
Value format note: pEC50 is -log10 of concentration (mol/L); just state the number.

Assay MT4 cells, sample O=C(N[C@@H]1CCCc2c1[nH]c1ccc(Cl)cc21)c1ccccn1 [GSK983] , pEC50 read: 8.12
